Hello, the source for this data is ChEMBL document CHEMBL1140384, in case you need it.

Molecular target: P2Y purinoceptor 2 (Homo sapiens)
Sequence (P41231 whole entry): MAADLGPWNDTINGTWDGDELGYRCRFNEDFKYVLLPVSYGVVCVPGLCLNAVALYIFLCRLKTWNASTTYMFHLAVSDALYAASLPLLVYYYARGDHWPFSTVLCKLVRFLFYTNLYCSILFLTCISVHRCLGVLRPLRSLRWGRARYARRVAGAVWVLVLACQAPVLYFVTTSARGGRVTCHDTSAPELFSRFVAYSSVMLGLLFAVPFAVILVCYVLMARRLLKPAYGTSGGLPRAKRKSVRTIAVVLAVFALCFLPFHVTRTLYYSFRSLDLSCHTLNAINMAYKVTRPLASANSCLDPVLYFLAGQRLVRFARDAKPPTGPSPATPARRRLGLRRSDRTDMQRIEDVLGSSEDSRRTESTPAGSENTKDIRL
Test: Percent inhibition of agonist-induced calcium mobilization at P2Y purinoceptor 2 recombinantly expressed in human HEK293 cells at 100 uM dose
Type: functional, cell-based
Conditions: in the assay text read “native in” for “recombinantly expressed in”
Can you tell me inhibition for the items I'm about to list?
Numbers only, in %.

Sample answers from the record:
O=C(Nc1cccc(C(=O)Nc2cc(C(=O)Nc3ccc(S(=O)(=O)O)c4cc(S(=O)(=O)O)cc(S(=O)(=O)O)c34)ccc2Cl)c1)Nc1cccc(C(=O)Nc2cc(C(=O)Nc3ccc(S(=O)(=O)O)c4cc(S(=O)(=O)O)cc(S(=O)(=O)O)c34)ccc2Cl)c1 : 55.2
O=C(Nc1cccc(C(=O)Nc2ccc(S(=O)(=O)O)c3cc(S(=O)(=O)O)cc(S(=O)(=O)O)c23)c1)Nc1cccc(C(=O)Nc2ccc(S(=O)(=O)O)c3cc(S(=O)(=O)O)cc(S(=O)(=O)O)c23)c1 : 24
O=C(Nc1cc(C(=O)Nc2ccc(S(=O)(=O)O)c3cc(S(=O)(=O)O)cc(S(=O)(=O)O)c23)ccc1F)Nc1cc(C(=O)Nc2ccc(S(=O)(=O)O)c3cc(S(=O)(=O)O)cc(S(=O)(=O)O)c23)ccc1F : 0
O=C(Nc1cc(C(=O)Nc2ccc(S(=O)(=O)O)c3cc(S(=O)(=O)O)cc(S(=O)(=O)O)c23)ccc1-c1ccccc1)Nc1cc(C(=O)Nc2ccc(S(=O)(=O)O)c3cc(S(=O)(=O)O)cc(S(=O)(=O)O)c23)ccc1-c1ccccc1 : 0
COCc1ccc(C(=O)Nc2ccc(S(=O)(=O)O)c3cc(S(=O)(=O)O)cc(S(=O)(=O)O)c23)cc1NC(=O)Nc1cc(C(=O)Nc2ccc(S(=O)(=O)O)c3cc(S(=O)(=O)O)cc(S(=O)(=O)O)c23)ccc1COC : 13
CCc1ccc(C(=O)Nc2ccc(S(=O)(=O)O)c3cc(S(=O)(=O)O)cc(S(=O)(=O)O)c23)cc1NC(=O)c1cccc(NC(=O)Nc2cccc(C(=O)Nc3cc(C(=O)Nc4ccc(S(=O)(=O)O)c5cc(S(=O)(=O)O)cc(S(=O)(=O)O)c45)ccc3CC)c2)c1 : 48.8
COc1ccc(C(=O)Nc2ccc(S(=O)(=O)O)c3cc(S(=O)(=O)O)cc(S(=O)(=O)O)c23)cc1NC(=O)Nc1cc(C(=O)Nc2ccc(S(=O)(=O)O)c3cc(S(=O)(=O)O)cc(S(=O)(=O)O)c23)ccc1OC : 53.6
Cc1ccc(C(=O)Nc2ccc(S(=O)(=O)O)c3cc(S(=O)(=O)O)cc(S(=O)(=O)O)c23)cc1NC(=O)Nc1cc(C(=O)Nc2ccc(S(=O)(=O)O)c3cc(S(=O)(=O)O)cc(S(=O)(=O)O)c23)ccc1C : 28.4

Now let's try a different one.
Lookup result for "CCc1ccc(C(=O)Nc2ccc(S(=O)(=O)O)c3cc(S(=O)(=O)O)cc(S(=O)(=O)O)c23)cc1NC(=O)Nc1cc(C(=O)Nc2ccc(S(=O)(=O)O)c3cc(S(=O)(=O)O)cc(S(=O)(=O)O)c23)ccc1CC" ; measured inhibition: 20.8

---

Can you tell me inhibition for the items I'm about to list?
Biological target: UniProt:Q96G91
Sequence (whole entry): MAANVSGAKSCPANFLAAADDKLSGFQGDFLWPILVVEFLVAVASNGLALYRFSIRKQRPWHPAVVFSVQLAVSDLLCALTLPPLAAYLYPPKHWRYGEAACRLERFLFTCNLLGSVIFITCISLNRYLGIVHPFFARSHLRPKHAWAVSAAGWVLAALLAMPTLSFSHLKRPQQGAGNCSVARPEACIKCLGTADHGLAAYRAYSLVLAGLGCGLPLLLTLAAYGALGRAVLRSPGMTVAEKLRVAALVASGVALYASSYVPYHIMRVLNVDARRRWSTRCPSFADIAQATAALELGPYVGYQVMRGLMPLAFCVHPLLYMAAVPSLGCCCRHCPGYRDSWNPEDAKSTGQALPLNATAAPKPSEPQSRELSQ
Assay: Percent inhibition of agonist-induced calcium mobilization at P2Y purinoceptor 11 recombinantly expressed in human 1321N1 astrocytoma cells at 100 uM dose
Answers are plain numbers, in %.

Sample answers from the record:
CCc1ccc(C(=O)Nc2ccc(S(=O)(=O)O)c3cc(S(=O)(=O)O)cc(S(=O)(=O)O)c23)cc1NC(=O)Nc1cc(C(=O)Nc2ccc(S(=O)(=O)O)c3cc(S(=O)(=O)O)cc(S(=O)(=O)O)c23)ccc1CC : 39.9
COCc1ccc(C(=O)Nc2ccc(S(=O)(=O)O)c3cc(S(=O)(=O)O)cc(S(=O)(=O)O)c23)cc1NC(=O)c1cccc(NC(=O)Nc2cccc(C(=O)Nc3cc(C(=O)Nc4ccc(S(=O)(=O)O)c5cc(S(=O)(=O)O)cc(S(=O)(=O)O)c45)ccc3COC)c2)c1 : 71.6
O=C(Nc1cccc(C(=O)Nc2ccc(S(=O)(=O)O)c3cc(S(=O)(=O)O)cc(S(=O)(=O)O)c23)c1)Nc1cccc(C(=O)Nc2ccc(S(=O)(=O)O)c3cc(S(=O)(=O)O)cc(S(=O)(=O)O)c23)c1 : 54.2
CCc1ccc(C(=O)Nc2ccc(S(=O)(=O)O)c3cc(S(=O)(=O)O)cc(S(=O)(=O)O)c23)cc1NC(=O)c1cccc(NC(=O)Nc2cccc(C(=O)Nc3cc(C(=O)Nc4ccc(S(=O)(=O)O)c5cc(S(=O)(=O)O)cc(S(=O)(=O)O)c45)ccc3CC)c2)c1 : 84.9
Cc1ccc(C(=O)Nc2ccc(S(=O)(=O)O)c3cc(S(=O)(=O)O)cc(S(=O)(=O)O)c23)cc1NC(=O)Nc1cc(C(=O)Nc2ccc(S(=O)(=O)O)c3cc(S(=O)(=O)O)cc(S(=O)(=O)O)c23)ccc1C : 86.6

Quick request: inhibition for each listed item, please.
1. COc1ccc(C(=O)Nc2ccc(S(=O)(=O)O)c3cc(S(=O)(=O)O)cc(S(=O)(=O)O)c23)cc1NC(=O)c1cccc(NC(=O)Nc2cccc(C(=O)Nc3cc(C(=O)Nc4ccc(S(=O)(=O)O)c5cc(S(=O)(=O)O)cc(S(=O)(=O)O)c45)ccc3OC)c2)c1
2. O=C(Nc1cc(C(=O)Nc2ccc(S(=O)(=O)O)c3cc(S(=O)(=O)O)cc(S(=O)(=O)O)c23)ccc1F)Nc1cc(C(=O)Nc2ccc(S(=O)(=O)O)c3cc(S(=O)(=O)O)cc(S(=O)(=O)O)c23)ccc1F
3. COc1ccc(C(=O)Nc2ccc(S(=O)(=O)O)c3cc(S(=O)(=O)O)cc(S(=O)(=O)O)c23)cc1NC(=O)Nc1cc(C(=O)Nc2ccc(S(=O)(=O)O)c3cc(S(=O)(=O)O)cc(S(=O)(=O)O)c23)ccc1OC
4. O=C(Nc1cccc(C(=O)Nc2cc(C(=O)Nc3ccc(S(=O)(=O)O)c4cc(S(=O)(=O)O)cc(S(=O)(=O)O)c34)ccc2Cl)c1)Nc1cccc(C(=O)Nc2cc(C(=O)Nc3ccc(S(=O)(=O)O)c4cc(S(=O)(=O)O)cc(S(=O)(=O)O)c34)ccc2Cl)c1
5. CC(C)c1ccc(C(=O)Nc2ccc(S(=O)(=O)O)c3cc(S(=O)(=O)O)cc(S(=O)(=O)O)c23)cc1NC(=O)c1cccc(NC(=O)Nc2cccc(C(=O)Nc3cc(C(=O)Nc4ccc(S(=O)(=O)O)c5cc(S(=O)(=O)O)cc(S(=O)(=O)O)c45)ccc3C(C)C)c2)c1

1. 92.2
2. 64.7
3. 11.2
4. 93
5. 83.1

---

Molecular target: P2Y purinoceptor 1 (Homo sapiens, UniProt P47900)
Sequence (P47900 whole entry): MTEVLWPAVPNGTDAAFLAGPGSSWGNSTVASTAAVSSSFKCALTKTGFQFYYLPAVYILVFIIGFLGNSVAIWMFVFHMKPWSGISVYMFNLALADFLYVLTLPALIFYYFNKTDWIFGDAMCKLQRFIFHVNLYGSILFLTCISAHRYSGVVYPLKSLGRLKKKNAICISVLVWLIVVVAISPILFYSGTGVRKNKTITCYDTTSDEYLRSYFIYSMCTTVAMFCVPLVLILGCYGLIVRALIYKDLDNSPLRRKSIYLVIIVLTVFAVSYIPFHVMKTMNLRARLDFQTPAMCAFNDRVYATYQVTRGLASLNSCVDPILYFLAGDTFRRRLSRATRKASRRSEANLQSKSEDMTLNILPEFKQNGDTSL
Assay: Percent inhibition of agonist-induced calcium mobilization at P2Y purinoceptor 1 recombinantly expressed in human HEK293 cells at 100 uM dose
Assay type: functional, cell-based
Details: in the assay text read “native in” for “recombinantly expressed in”
measurementName: inhibition (%)
Give bare numbers, in %.

Sample answers from the record:
COc1ccc(C(=O)Nc2ccc(S(=O)(=O)O)c3cc(S(=O)(=O)O)cc(S(=O)(=O)O)c23)cc1NC(=O)c1cccc(NC(=O)Nc2cccc(C(=O)Nc3cc(C(=O)Nc4ccc(S(=O)(=O)O)c5cc(S(=O)(=O)O)cc(S(=O)(=O)O)c45)ccc3OC)c2)c1 : 23.2
O=C(Nc1cc(C(=O)Nc2ccc(S(=O)(=O)O)c3cc(S(=O)(=O)O)cc(S(=O)(=O)O)c23)ccc1Cl)Nc1cc(C(=O)Nc2ccc(S(=O)(=O)O)c3cc(S(=O)(=O)O)cc(S(=O)(=O)O)c23)ccc1Cl : 57.8

Quick request: inhibition for each listed item, please.
1. CC(C)c1ccc(C(=O)Nc2ccc(S(=O)(=O)O)c3cc(S(=O)(=O)O)cc(S(=O)(=O)O)c23)cc1NC(=O)Nc1cc(C(=O)Nc2ccc(S(=O)(=O)O)c3cc(S(=O)(=O)O)cc(S(=O)(=O)O)c23)ccc1C(C)C
2. O=C(Nc1cc(C(=O)Nc2ccc(S(=O)(=O)O)c3cc(S(=O)(=O)O)cc(S(=O)(=O)O)c23)ccc1-c1ccccc1)Nc1cc(C(=O)Nc2ccc(S(=O)(=O)O)c3cc(S(=O)(=O)O)cc(S(=O)(=O)O)c23)ccc1-c1ccccc1
3. O=C(Nc1cc(C(=O)Nc2ccc(S(=O)(=O)O)c3cc(S(=O)(=O)O)cc(S(=O)(=O)O)c23)ccc1F)Nc1cc(C(=O)Nc2ccc(S(=O)(=O)O)c3cc(S(=O)(=O)O)cc(S(=O)(=O)O)c23)ccc1F

28.7
34.2
60
